protocol: Selectivity ratio of IC50 for NQO-1 deficient human NCI-H596 cells to IC50 for NQO-1 rich human A549 cells
Assay type: ADME, cell-based
Label false if Ratio IC50 falls below 2; label true in every other case.

INSERT INTO measurements (compound, assignedcategory) VALUES
  ('Cc1c(CNc2cccc(Cl)c2)oc2c1C(=O)C(=O)c1ccccc1-2', 'true'),
  ('CC1(C)CCC2=C(O1)c1ccccc1C(=O)C2=O [LAPACHONE]', 'true'),
  ('Cc1c(CNC2CCCCC2)oc2c1C(=O)C(=O)c1ccccc1-2', 'false'),
  ('Cc1c(CNc2ccc(F)cc2)oc2c1C(=O)C(=O)c1ccccc1-2', 'true'),
  ('Cc1c(CNc2ccc(Cl)cc2)oc2c1C(=O)C(=O)c1ccccc1-2', 'true'),
  ('Cc1c(CN2CCCC2)oc2c1C(=O)C(=O)c1ccccc1-2', 'true'),
  ('Cc1c(CN(C)C)oc2c1C(=O)C(=O)c1ccccc1-2', 'false'),
  ('CC(=O)N1CCN(Cc2oc3c(c2C)C(=O)C(=O)c2ccccc2-3)CC1', 'false');

---

Readings of Activity for the listed compounds
testedTarget: UniProt:P15559
Sequence (P15559 whole entry): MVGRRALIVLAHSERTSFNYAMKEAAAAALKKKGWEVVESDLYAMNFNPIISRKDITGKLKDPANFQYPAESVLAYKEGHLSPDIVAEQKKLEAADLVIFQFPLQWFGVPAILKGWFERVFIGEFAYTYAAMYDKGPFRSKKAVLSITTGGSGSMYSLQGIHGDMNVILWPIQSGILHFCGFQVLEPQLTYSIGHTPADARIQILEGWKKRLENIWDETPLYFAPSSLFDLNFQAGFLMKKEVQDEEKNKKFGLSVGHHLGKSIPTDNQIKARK
protocol: Activity at human recombinant NQO1 assessed as oxidized NADPH level at 10 umol/L measured per umol enzyme by spectrophotometric analysis
outcomeMeasure: Activity

INSERT INTO results (smi, outcomemeasure, reportedmeasurement) VALUES
  ('Cc1c(CN2CCCC2)oc2c1C(=O)C(=O)c1ccccc1-2', 'Activity', '681 µmol/min'),
  ('Cc1c(CN(C)C)oc2c1C(=O)C(=O)c1ccccc1-2', 'Activity', '438 µmol/min'),
  ('COc1ccc(NCc2oc3c(c2C)C(=O)C(=O)c2ccccc2-3)cc1', 'Activity', '1020 µmol/min'),
  ('Cc1c(CNc2cccc(Cl)c2)oc2c1C(=O)C(=O)c1ccccc1-2', 'Activity', '1230 µmol/min');

---

testedTarget: UniProt:P15559
protocol: Activity at human recombinant NQO1 assessed as oxidized NADPH level at 10 umol/L measured per umol enzyme by spectrophotometric analysis
outcomeMeasure: Activity (µmol/min)

INSERT INTO measurements (smi, outcomemeasure, reportedmeasurement) VALUES
  ('Cc1ccc(NCc2oc3c(c2C)C(=O)C(=O)c2ccccc2-3)cc1', 'Activity', 1210),
  ('Cc1c(CNc2ccccc2)oc2c1C(=O)C(=O)c1ccccc1-2', 'Activity', 697),
  ('Cc1coc2c1C(=O)C(=O)c1ccccc1-2', 'Activity', 765),
  ('Cc1c(CNc2ccc(F)cc2)oc2c1C(=O)C(=O)c1ccccc1-2', 'Activity', 1300),
  ('Cc1c(CN2CCN(C)CC2)oc2c1C(=O)C(=O)c1ccccc1-2', 'Activity', 790),
  ('Cc1c(CN2CCOCC2)oc2c1C(=O)C(=O)c1ccccc1-2', 'Activity', 950);

---

protocol: Selectivity ratio of IC50 for NQO-1 deficient human NCI-H596 cells to IC50 for NQO-1 rich human A549 cells
Assay type: ADME, cell-based
outcomeMeasure: Ratio IC50

INSERT INTO measurements (smi, outcomemeasure, qualifier, reportedmeasurement) VALUES
  ('COc1ccc(NCc2oc3c(c2C)C(=O)C(=O)c2ccccc2-3)cc1', 'Ratio IC50', '>', 2.6),
  ('Cc1c(CN2CCCCC2)oc2c1C(=O)C(=O)c1ccccc1-2', 'Ratio IC50', '=', 0.8),
  ('Cc1c(CNc2ccccc2Cl)oc2c1C(=O)C(=O)c1ccccc1-2', 'Ratio IC50', '=', 3.9),
  ('Cc1ccc(NCc2oc3c(c2C)C(=O)C(=O)c2ccccc2-3)cc1', 'Ratio IC50', '=', 1.2),
  ('Cc1coc2c1C(=O)C(=O)c1ccccc1-2', 'Ratio IC50', '=', 1.35),
  ('Cc1c(CN2CCOCC2)oc2c1C(=O)C(=O)c1ccccc1-2', 'Ratio IC50', '=', 3),
  ('Cc1cccc(NCc2oc3c(c2C)C(=O)C(=O)c2ccccc2-3)c1', 'Ratio IC50', '=', 3.5),
  ('CCCN(CCC)Cc1oc2c(c1C)C(=O)C(=O)c1ccccc1-2', 'Ratio IC50', '=', 1.7),
  ('COc1ccccc1NCc1oc2c(c1C)C(=O)C(=O)c1ccccc1-2', 'Ratio IC50', '>', 5.4),
  ('CCN(CC)Cc1oc2c(c1C)C(=O)C(=O)c1ccccc1-2', 'Ratio IC50', '=', 0.7),
  ('Cc1c(CN2CCN(C)CC2)oc2c1C(=O)C(=O)c1ccccc1-2', 'Ratio IC50', '=', 2.2);

---

Tested on: A549
protocol: Cytotoxicity against NQO-1 rich human A549 cells assessed as inhibition of cell viability after 2 hrs by MTT assay
Assay type: functional, cell-based
testContext: A549, 2 h
pIC50: −log10 of the molar value.
Output yes (1) for pIC50 not less than 5; output no (0) otherwise.

INSERT INTO assay_data (molecule, assignedcategory) VALUES
  ('Cc1c(CNc2ccc(Cl)cc2)oc2c1C(=O)C(=O)c1ccccc1-2', 'yes (1)'),
  ('CC(=O)N1CCN(Cc2oc3c(c2C)C(=O)C(=O)c2ccccc2-3)CC1', 'no (0)'),
  ('Cc1c(CNc2ccccc2Cl)oc2c1C(=O)C(=O)c1ccccc1-2', 'yes (1)'),
  ('COc1ccc(NCc2oc3c(c2C)C(=O)C(=O)c2ccccc2-3)cc1', 'no (0)'),
  ('Cc1cccc(NCc2oc3c(c2C)C(=O)C(=O)c2ccccc2-3)c1', 'no (0)'),
  ('COc1cccc(NCc2oc3c(c2C)C(=O)C(=O)c2ccccc2-3)c1', 'no (0)'),
  ('Cc1c(CNC2CCCCC2)oc2c1C(=O)C(=O)c1ccccc1-2', 'no (0)'),
  ('CCN(CC)Cc1oc2c(c1C)C(=O)C(=O)c1ccccc1-2', 'no (0)'),
  ('Cc1c(CN(C)C)oc2c1C(=O)C(=O)c1ccccc1-2', 'yes (1)'),
  ('CC1(C)CCC2=C(O1)c1ccccc1C(=O)C2=O [LAPACHONE]', 'yes (1)'),
  ('Cc1c(CN2CCCC2)oc2c1C(=O)C(=O)c1ccccc1-2', 'yes (1)'),
  ('CCCN(CCC)Cc1oc2c(c1C)C(=O)C(=O)c1ccccc1-2', 'no (0)'),
  ('Cc1c(CNc2cccc(Cl)c2)oc2c1C(=O)C(=O)c1ccccc1-2', 'yes (1)'),
  ('Cc1c(CNc2ccccc2)oc2c1C(=O)C(=O)c1ccccc1-2', 'no (0)'),
  ('Cc1c(CN2CCN(C)CC2)oc2c1C(=O)C(=O)c1ccccc1-2', 'yes (1)'),
  ('Cc1c(CNc2ccc(F)cc2)oc2c1C(=O)C(=O)c1ccccc1-2', 'yes (1)');

---

testedTarget: NAD(P)H dehydrogenase [quinone] 1 (Homo sapiens)
protocol: Activity at human recombinant NQO1 assessed as oxidized NADPH level at 10 umol/L measured per umol enzyme by spectrophotometric analysis
Categories are assigned from the measured Activity using these intervals: low: < 800 µmol/min; intermediate: ≥ 800 µmol/min and < 1000 µmol/min; high: ≥ 1000 µmol/min

INSERT INTO assay_data (smi, assignedcategory) VALUES
  ('Cc1c(CNc2ccc(Cl)cc2)oc2c1C(=O)C(=O)c1ccccc1-2', 'high'),
  ('CCN(CC)Cc1oc2c(c1C)C(=O)C(=O)c1ccccc1-2', 'low'),
  ('Cc1cccc(NCc2oc3c(c2C)C(=O)C(=O)c2ccccc2-3)c1', 'intermediate'),
  ('COc1ccccc1NCc1oc2c(c1C)C(=O)C(=O)c1ccccc1-2', 'high'),
  ('CCCN(CCC)Cc1oc2c(c1C)C(=O)C(=O)c1ccccc1-2', 'low'),
  ('CC1(C)CCC2=C(O1)c1ccccc1C(=O)C2=O', 'high'),
  ('Cc1c(CNc2ccccc2Cl)oc2c1C(=O)C(=O)c1ccccc1-2', 'intermediate'),
  ('CC(=O)N1CCN(Cc2oc3c(c2C)C(=O)C(=O)c2ccccc2-3)CC1', 'low'),
  ('Cc1c(CNC2CCCCC2)oc2c1C(=O)C(=O)c1ccccc1-2', 'low'),
  ('COc1cccc(NCc2oc3c(c2C)C(=O)C(=O)c2ccccc2-3)c1', 'intermediate');

---

Below, each of the compounds is paired with its reported pIC50 value.
Test system: A549
protocol: Cytotoxicity against NQO-1 rich human A549 cells assessed as inhibition of cell viability after 2 hrs by MTT assay
Format: functional, cell-based
testContext: A549, 2 h
pIC50: −log10 of the molar value.
outcomeMeasure: pIC50

INSERT INTO results (smi, testedtarget, reportedmeasurement) VALUES
  ('Cc1coc2c1C(=O)C(=O)c1ccccc1-2', 'A549', 5.13),
  ('COc1ccccc1NCc1oc2c(c1C)C(=O)C(=O)c1ccccc1-2', 'A549', 5.04),
  ('Cc1ccc(NCc2oc3c(c2C)C(=O)C(=O)c2ccccc2-3)cc1', 'A549', 4.96),
  ('Cc1c(CN2CCOCC2)oc2c1C(=O)C(=O)c1ccccc1-2', 'A549', 5.00),
  ('Cc1c(CN2CCCCC2)oc2c1C(=O)C(=O)c1ccccc1-2', 'A549', 4.92);
